Sourced from the supplement of paper PMC9112550

Test system: Escherichia coli TOP10;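 note: peptides expressed intracellularly from a pBAD plasmid library in pooled LB shake-flask culture, induced with 0.3% L-arabinose, DNA abundance read by NGS, three biological replicates, DESeq2 with apeglm shrinkage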
RUN_DESCRIPTION: shrunken log2 fold change of peptide-encoding DNA abundance (4.5 h post-induction vs induction); higher = less antimicrobial activity (less host growth inhibition)
RUN_PARAMETERS: time post-induction: 4.5 h; library: site-saturation at positions 5, 18, 19, 20
MEASUREMENT_TYPE: shrunken log2 fold change

[
  {
    "SEQUENCE_TEXT": "RRIRTRPPRLPRPRPRPFAPPRP",
    "MEASUREMENT": 0.163
  },
  {
    "SEQUENCE_TEXT": "RRIRWRPPRLPRPRPRPIRDPRP",
    "MEASUREMENT": 0.0528
  },
  {
    "SEQUENCE_TEXT": "RRIRNRPPRLPRPRPRPHCRPRP",
    "MEASUREMENT": 0.00914
  },
  {
    "SEQUENCE_TEXT": "RRIRNRPPRLPRPRPRPEPSPRP",
    "MEASUREMENT": 0.145
  },
  {
    "SEQUENCE_TEXT": "RRIRYRPPRLPRPRPRPHENPRP",
    "MEASUREMENT": -0.212
  },
  {
    "SEQUENCE_TEXT": "RRIRVRPPRLPRPRPRPEVLPRP",
    "MEASUREMENT": 0.244
  },
  {
    "SEQUENCE_TEXT": "RRIRNRPPRLPRPRPRPYHIPRP",
    "MEASUREMENT": -0.366
  },
  {
    "SEQUENCE_TEXT": "RRIRMRPPRLPRPRPRPEEAPRP",
    "MEASUREMENT": 3.94
  },
  {
    "SEQUENCE_TEXT": "RRIRDRPPRLPRPRPRPNDHPRP",
    "MEASUREMENT": -0.53
  },
  {
    "SEQUENCE_TEXT": "RRIRPRPPRLPRPRPRPTKYPRP",
    "MEASUREMENT": -0.344
  },
  {
    "SEQUENCE_TEXT": "RRIRVRPPRLPRPRPRPGPSPRP",
    "MEASUREMENT": 0.201
  },
  {
    "SEQUENCE_TEXT": "RRIRNRPPRLPRPRPRPLCTPRP",
    "MEASUREMENT": -0.194
  },
  {
    "SEQUENCE_TEXT": "RRIRHRPPRLPRPRPRPSANPRP",
    "MEASUREMENT": -0.228
  },
  {
    "SEQUENCE_TEXT": "RRIRFRPPRLPRPRPRPWMNPRP",
    "MEASUREMENT": -0.708
  },
  {
    "SEQUENCE_TEXT": "RRIRIRPPRLPRPRPRPFYLPRP",
    "MEASUREMENT": -0.882
  }
]
